For each of the binders below, state its Anti-CD28 Fab (SEQ ID NOs: 696, 697) signal.
study target: T1, Anti-CD28 Fab (SEQ ID NOs: 696, 697)
T1 construct: Biotinylated and captured on neutravidin coated plates in the phage ELISA
T1 sequence (VH, as listed by the source, chain 1 of 2): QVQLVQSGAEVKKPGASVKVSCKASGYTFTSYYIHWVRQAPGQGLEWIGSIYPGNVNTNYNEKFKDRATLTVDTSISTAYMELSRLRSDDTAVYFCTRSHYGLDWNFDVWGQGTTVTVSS
T1 sequence (VL, as listed by the source, chain 2 of 2): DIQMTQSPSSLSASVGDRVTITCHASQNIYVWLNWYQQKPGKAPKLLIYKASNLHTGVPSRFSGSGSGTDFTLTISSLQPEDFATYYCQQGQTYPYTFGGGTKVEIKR
assay comment: phage binding ELISA; biotinylated anti-CD28 Fab on neutravidin plate, anti-M13 HRP detection
Where no end group is shown, it is not given here.
Write the value as a bare number.

Inquiry: Data request, read-out Anti-CD28 Fab (SEQ ID NOs: 696, 697) signal, for YWYCSPSIVRCVLV (Clonal phage supernatant; also called Peptide-89; not shown: fused to the pIII filament protein of the bacteriophage) [Phage-468]
Reply text: 1.51

Inquiry: Data request, read-out Anti-CD28 Fab (SEQ ID NOs: 696, 697) signal, for WCWDYKLWVPTQCP (cysteine pairing not given here; also: displayed as fusion to phage pIII, linker and pIII sequence not given here, Clonal phage supernatant; also called Peptide-81; not shown: fused to the pIII filament protein of the bacteriophage) [Phage-460]
Reply text: 2.27

Inquiry: Data request, read-out Anti-CD28 Fab (SEQ ID NOs: 696, 697) signal, for WECLKYTEANACTY (Clonal phage supernatant; also called Peptide-76; not shown: fused to the pIII filament protein of the bacteriophage) [Phage-455]
Reply text: 1.55

Inquiry: Data request, read-out Anti-CD28 Fab (SEQ ID NOs: 696, 697) signal, for YWSCFQIPFTCFYF (Clonal phage supernatant; also called Peptide-75; not shown: fused to the pIII filament protein of the bacteriophage) [Phage-454]
Reply text: 1.44

Inquiry: Data request, read-out Anti-CD28 Fab (SEQ ID NOs: 696, 697) signal, for WICDKSGSIMLCRA (Clonal phage supernatant; also called Peptide-91; not shown: fused to the pIII filament protein of the bacteriophage) [Phage-470]
Reply text: 0.91

Inquiry: Data request, read-out Anti-CD28 Fab (SEQ ID NOs: 696, 697) signal, for YCAGHSPINIGKCL (cysteine pairing not given here; also: displayed as fusion to phage pIII, linker and pIII sequence not given here, Clonal phage supernatant; also called Peptide-84; not shown: fused to the pIII filament protein of the bacteriophage) [Phage-463]
Reply text: 1.49

Inquiry: Data request, read-out Anti-CD28 Fab (SEQ ID NOs: 696, 697) signal, for WCWYYREWVPMTCP (cysteine pairing not given here; also: displayed as fusion to phage pIII, linker and pIII sequence not given here, Clonal phage supernatant; also called Peptide-88; not shown: fused to the pIII filament protein of the bacteriophage) [Phage-467]
Reply text: 1.85

Inquiry: Data request, read-out Anti-CD28 Fab (SEQ ID NOs: 696, 697) signal, for ACDTYFAGMINECF (cysteine pairing not given here; also: displayed as fusion to phage pIII, linker and pIII sequence not given here, Clonal phage supernatant; also called Peptide-79; not shown: fused to the pIII filament protein of the bacteriophage) [Phage-458]
Reply text: 0.92

Inquiry: Data request, read-out Anti-CD28 Fab (SEQ ID NOs: 696, 697) signal, for PDCQTILFKPWCVR (cysteine pairing not given here; also: displayed as fusion to phage pIII, linker and pIII sequence not given here, Clonal phage supernatant; also called Peptide-78; not shown: fused to the pIII filament protein of the bacteriophage) [Phage-457]
Reply text: 2.09

Inquiry: Data request, read-out Anti-CD28 Fab (SEQ ID NOs: 696, 697) signal, for FMCLPQNPHPLCFK (Clonal phage supernatant; also called Peptide-77; not shown: fused to the pIII filament protein of the bacteriophage) [Phage-456]
Reply text: 0.84

Inquiry: Data request, read-out Anti-CD28 Fab (SEQ ID NOs: 696, 697) signal, for WCWDYKLWVPMTCP (cysteine pairing not given here; also: displayed as fusion to phage pIII, linker and pIII sequence not given here, Clonal phage supernatant; also called Peptide-85; not shown: fused to the pIII filament protein of the bacteriophage) [Phage-464]
Reply text: 2.51

Inquiry: Data request, read-out Anti-CD28 Fab (SEQ ID NOs: 696, 697) signal, for SCAAGASYAWPYCL (Clonal phage supernatant; also called Peptide-92; not shown: fused to the pIII filament protein of the bacteriophage) [Phage-471]
Reply text: 1.49

These data points were gathered from patent US20260242478A1.
